Molecular target: RSV F protein of subtype B (18537) on recombinant mKate-RSV (Respiratory syncytial virus subtype B …, UniProt P13843 26-574)
Assay: cell-based or functional assay
# Neut IC50 (µg/ml) subtype B per record follows
MEASURED PARAMETER: Neut IC50 (µg/ml) subtype B

{"BINDER": "ADI-14526 (antibody, V domains shown, IgG; also called Antibody Number 86) VH: EVQLVESGPGLVRPSQTLSIKCSVSGGSINRGAYFWTWIRQRPGKGLEWIGSIHDTGSYYNPSLKTRVSISGDTSKNLFTLELTSLTAADTAVYYCARGRGYSYGWRYFDSWGQGTLVTVSS VL: SYVLTQPPSVSVSPGQTARITCSGDAFPRQYSYWYQQKAGQPPVLVILKDSERPSGIPARFSGSTSGTTVTLTITGVQAEDEADYYCQSSDSSGNYVVFGGGTKLTVL", "MEASURED PARAMETER": "Neut IC50 (µg/ml) subtype B", "ASSAY RESULT": "9.67 µg/mL"}
{"BINDER": "ADI-14550 (antibody, V domains shown) VH: QVQLVQSGGGVVQPGRSLRLSCAASGFTFSDYAMHWVRQAPGKGLQWVSLISYNGRKKYYADSVKGRFTISRDDSKNTLYLQMNPLRPDDTAVYYCARDGDIVAVPAAIGLDYWGQGTLVTVSS VL: DIVLTQSPESLAVSLGERATINCNSSQSVLYTSNNKNYLAWYQQKSGQPPKLLIYWASTRESGVPERFSGSGSGTDFTLTISSLQAEDVAVYYCQQYSSPPYTFGQGTKLEIK", "MEASURED PARAMETER": "Neut IC50 (µg/ml) subtype B", "ASSAY RESULT": "> 10 µg/mL"}
{"BINDER": "ADI-14547 (antibody, V domains shown, IgG; also called Antibody Number 107) VH: EVQLLESGPVLVKPTETLTLTCTVSGFSLANPDVAVAWIRQPPGKALEWLAHIFSGDETSYTTSLQNRLTISKDTSKSQVVLIMTKMDPRDTGTYFCARVLTTWHGPDYWGQGTTVTVSS VL: ETTLTQSPLSLPVTLGQPASISCRSDQSLVYHNGNTYVSWFHQRPGQSPRRLIYKVSIRDSGVPDRFSGSGSGTDFALKISRVEAEDLGVYYCMQGSHWPHTFGQGTKVDIK", "MEASURED PARAMETER": "Neut IC50 (µg/ml) subtype B", "ASSAY RESULT": "0.252 µg/mL"}
{"BINDER": "ADI-14535 (antibody, V domains shown, IgG; also called Antibody Number 95) VH: QVQLQQWGPGLVKPSQTLSLTCSVSGASVKIGSNFWTWIRQRPGKGLEWIGAIHDTGTTYYNPSLEPQVIISTDTSQNQFSLRLTSVTAADTAVYYCARGRGYTYGWRYFDYWGQGTLVTVSS VL: SYVLTQPPSVSVSPGQTARITCSGDALPKQYAFWYQHKAGQAPVLVIKKDTERPSGIPERFSGSISGTTATLIISGVQAEDEADYYCQSSDSSGNVVLFGGGTQLTVL", "MEASURED PARAMETER": "Neut IC50 (µg/ml) subtype B", "ASSAY RESULT": "> 10 µg/mL"}
{"BINDER": "ADI-14536 (antibody, V domains shown, IgG; also called Antibody Number 96) VH: QVQLVQSGGGVVQPGRSLRLSCAASGFSFSSYGMHWVRQAPGKGLEWVAAIFYHEIKDYYADSVNGRFSISRDNSKNTLYLEMYSLKVEDTAVYYCARDSGTLTGLPHDAFDIWGQGTTVTVSS VL: DIQMTQSPSTLSASLGGRVTITCRASQSVTNRLAWYQHKPGKAPNLLIYKASTLEIGVPSRFSGSGSGTEFTLTISSLQPDDFATYYCQQYSSYSWTFGQGTKVEIK", "MEASURED PARAMETER": "Neut IC50 (µg/ml) subtype B", "ASSAY RESULT": "0.696 µg/mL"}
